compounds and their reported TGI
- Test system: DMS 273 small cell lung
- methodNotes: NCI tumour cell line growth inhibition, 48 h

- compound: "COc1ccc(OC)c(/C=N/N=C(\\N)NO)c1"
  testValue: "> 100 µM"
- compound: "Cc1cccc(C)c1N1C(=O)C(=O)C(c2nc3ccccc3s2)/C(=N\\N)C1=O (stereo unspecified)"
  testValue: "> 100 µM"
- compound: "O=C1C2C3CC(C4C5C=CC(C5)C34)C2C2C3CC(C12)C1C2C=CC(C2)C31 (stereo unspecified)"
  testValue: "> 100 µM"

Req: Look at this compound and give its reported TGI. N/N=C(/Cc1nc2ccc(C(=O)c3ccccc3)cc2[nH]c1=O)C(=O)Nc1ccc([N+](=O)[O-])cc1[N+](=O)[O-]
Resp: > 100 µM

Req: Please do the same for O=C1c2ccccc2C2CCC1c1ccccc12 (stereo unspecified) as well.
Resp: 71.4 µM

Req: Please do the same for O=C(Nc1ccc(Cl)cc1Cl)OC(Cn1cncn1)c1ccc(Cl)cc1Cl (stereo unspecified) as well.
Resp: 31.4 µM

Req: Please do the same for Nc1ccccc1C(=O)CCC1C(=O)NC(=S)NC1=O as well.
Resp: > 100 µM

Req: Please do the same for CCN(CC)CSc1nc2ccccc2[nH]1 as well.
Resp: > 100 µM

###

- Test system: NCI-H522 lung
- methodNotes: NCI tumour cell line growth inhibition, 48 h; in the data active = GI50 below about 0.43 µM; inactive = the rest
The categories you may choose from are active, inactive

// below: answered compounds
- compound: "Cn1cc(-c2cnn3c(N)c(Br)c(C4CCCNC4)nc23)cn1 (configuration not stated)"
  assignedLabel: "inactive"
- compound: "CC(=O)N1N=C(c2ccc(Nc3nc(Nc4ccc(F)cc4)nc(Nc4ccc(F)cc4)n3)cc2)CC1c1ccc(N(C)C)cc1 (configuration not stated)"
  assignedLabel: "inactive"
- compound: "CCCCCCCCCCCCOC1C(CNC(=O)C2OC3OC(C)(C)OC3C2NC(=O)CN2CCN(c3ccc(OC)cc3)CC2)OC2OC(C)(C)OC21 (configuration not stated)"
  assignedLabel: "inactive"
- compound: "CC(=O)C1=C(O)C=C2Oc3c(C(=O)/C=C/c4cc(Cl)cc(Cl)c4)c(O)c(C)c(O)c3[C@]2(C)C1=O"
  assignedLabel: "active"
- compound: "Cc1cc(Nc2cc(N3CCN(C)CC3)nc(/C=C/c3ccccc3)n2)n[nH]1"
  assignedLabel: "active"

Req: Per the assay record, what outcome was assigned to N#Cc1cnc(Nc2cc(NC[C@H]3CNCCO3)c(C(F)(F)F)cn2)cn1 ?
Resp: inactive

Req: Please do the same for Cc1cc2c(-c3nc4ccccn4c3N)c(O)c(O)cc2c(O)c1-c1c(C)cc2c(-c3nc4ccccn4c3N)c(O)c(O)cc2c1O as well.
Resp: inactive

Req: Please do the same for CCN(CC)CCCC(C)N/C(=C1\C(=O)NC(=O)\C1=C(/NC(C)CCCN(CC)CC)c1cccc(OC)c1)c1cccc(OC)c1 (configuration not stated) as well.
Resp: inactive

Req: Please do the same for CCN(Cc1cccc(Cl)c1)c1ccc(CO)c(Cl)c1 as well.
Resp: inactive

Req: Please do the same for O=C1c2ccccc2-c2c1c1ccccc1c(=O)n2CCCNCCn1c2c(c3ccccc3c1=O)C(=O)c1ccccc1-2 as well.
Resp: inactive

Req: Please do the same for Oc1c(Cl)cc(Cl)c2ccc(Cn3cc(-c4ccc(C(F)(F)F)cc4)nn3)nc12 as well.
Resp: inactive

Req: Please do the same for COc1cc2c(c(OC)c1OC)-c1ccc(SC)c(=O)cc1[C@@H](O)CC2 as well.
Resp: active
